- System: Colletotricum lagenarium
- test.method.notes: Cucumber Anthracnose (COLLLA) whole-plant disease control test
- Format: in vivo
- condition: Cucumis sativus, foliar; 200 ppm applied to foliage of cucumber; inoculated one day after treatment; read-out: COLLLA disease control
measured.property: pest or weed control at 200 ppm

{"smiles.representation": "CS(=O)(=O)c1cc(Oc2ccc(CCNc3ncnc4scc(Cl)c34)cc2)ccn1", "study.system": "Colletotricum lagenarium", "result.value": "50 to 79%"}
{"smiles.representation": "FC(F)(F)c1ccc(COc2ccc(CCNc3ncnc4scc(Cl)c34)cc2)o1", "study.system": "Colletotricum lagenarium", "result.value": "0 to 49%"}
{"smiles.representation": "Clc1ccc(COc2ccc(CCNc3ncnc4scc(Cl)c34)cc2)cn1", "study.system": "Colletotricum lagenarium", "result.value": "50 to 79%"}
{"smiles.representation": "N#Cc1ccnc(Oc2ccc(CCNc3ncnc4sccc34)cc2)c1", "study.system": "Colletotricum lagenarium", "result.value": "80 to 100%"}

Each compound below has a recorded value; state its pest or weed control at 200 ppm.
1. CC(=O)c1ccc(Oc2ccc(CCNc3ncnc4scc(Cl)c34)cc2)nc1
2. O=[N+]([O-])c1ccc(Oc2ccc(CCNc3ncnc4scc(Cl)c34)cc2)nc1

OUTPUT:
0 to 49%
50 to 79%
